# Procedure Summary: protein stability index of a GFP-peptide fusion (GPS, HEK-293T) (PSI 1-6); higher = more stable;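 also: 24-mer peptide tiles fused after GFP, lentivirally expressed, FACS-sorted into six equal bins by GFP/DsRed ratio, decoded by Illumina sequencing, PSI is the read-weighted mean bin number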
# Assay Setup: treatment: DMSO; c terminus: a fixed tail appended
Give 1.0 when the value for protein stability index is at least 3. Give 0.0 when it is less.

Known results for sequences:
- Record Sequence: "ARLMLESEYRSDIINAKSNDGWTP [ASB7]"
  Qualitative Label: 0.0
- Record Sequence: "AYDWVGRPIPTPVGSVHVDSGASA [CSNK1G1]"
  Qualitative Label: 1.0
- Record Sequence: "GKSPSITFEYTLLQPPHESRPQPI [ADAMTSL2]"
  Qualitative Label: 0.0

Is reported protein stability index greater than or equal to 3 here: KRKMVSWEASSLGLVTAALHMVIV [KMT2E]
0.0

Does YTATEQEMQQQMSLGELCHPVPLS [TRIM14] have a reported protein stability index of at least 3?
1.0

# check: protein stability index of MMGLAQIYKKYALQSAAGKDAAKQ [PDS5B] is greater than or equal to 3
0.0

Say whether EHQPDNIKALFRKGKVLAQQGEYS [FKBP8] shows protein stability index of 3 or more.
1.0

Evaluate FLIVTVAWAAHTRLFQVVGKTDDT [TMEM175] : protein stability index at minimum 3?
0.0

In plain terms: is recorded protein stability index at least 3 for GKGEARARLKRSQSFGVASASSIK [SMTNL2] ?
1.0

API: above_or_equal(metric=protein stability index, cutoff=3) for item CALGDHGCEHSCVSSEDSFVCQCF [MATN2]
1.0

I'd appreciate it if you could say whether TFRVSSDLIKHQRIHTEEKPYKCQ [ZNF75A] has protein stability index at least equal to 3.
1.0

Entry IIELLEKDGMAFQEALDPGPFDQG [ELF3] : is its protein stability index no less than 3?
1.0

###

Overview of recorded protein stability index for various sequences
# Procedure Summary: protein stability index of a GFP-peptide fusion (GPS, HEK-293T) (PSI 1-6); higher = more stable
# Assay Setup: treatment: DMSO; c terminus: a fixed tail appended
API doc: respond with a numeric literal and nothing else, no unit.

- Record Sequence: "LIETYTGLMSFIGNRNKLGYSLAR [TPRG1]"
  protein stability index: 2.31

// below: protein stability index requested for another sequence
Give a short answer stating reported protein stability index for LPEPSKRGPPHGWPKLCPCLRSGI [MYCL] .
2.04

###

# Procedure Summary: protein stability index of a GFP-peptide fusion (GPS, HEK-293T) (PSI 1-6); higher = more stable
# Assay Setup: treatment: MLN4924 1 uM, 8 h; c terminus: a fixed tail appended
Kindly return 1 (yes) if reported protein stability index is no lower than 3; return 0 (no) if it is lower.

Illustrative cases are given below, each with its answer.
- Record Sequence: "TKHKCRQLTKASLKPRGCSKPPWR [SPACA9]"
  Qualitative Label: "1 (yes)"
- Record Sequence: "NIADIEEKRGFTSHFVFVIEVKTK [NCF4]"
  Qualitative Label: "0 (no)"
- Record Sequence: "ARGRHVGSSETNLLQHLLEACGRC [PYCR3]"
  Qualitative Label: "1 (yes)"
- Record Sequence: "GLQPVVFVLFLFAYLVTVRGNLSI [OR3A1]"
  Qualitative Label: "0 (no)"
- Record Sequence: "PPPLPNHKYNTTSTSYSPLASLPL [PLAGL1]"
  Qualitative Label: "1 (yes)"

Reported protein stability index at or above 3? FGGQNAHNQIAIYAHQPRTADEIP [FUT8]
1 (yes)

Is reported protein stability index greater than or equal to 3 here: QDRFRIELSEEGAEGRVVGRKDIT [MOSPD3]
1 (yes)

Does the reported protein stability index for YVQEKRDGLKRRQQLEEELLRAKI [RAD54B] fall at or above the 3 mark?
1 (yes)

###

# Procedure Summary: protein stability index of a GFP-peptide fusion (GPS, HEK-293T) (PSI 1-6); higher = more stable
# Assay Setup: treatment: MLN4924 1 uM, 8 h; c terminus: a fixed tail appended
The reader will find reported protein stability index values listed item by item below.

- Record Sequence: "KNDSLRKRYDGLKYDVKKVEEVVY [TSN]"
  protein stability index: 3.32
- Record Sequence: "SAAYYLNDLDRIAQPNYIPTQQDV [GNAI1]"
  protein stability index: 3.73
- Record Sequence: "LEQTAREILTLLQGVHQGAGFQDI [TSN]"
  protein stability index: 2.81

Look up protein stability index of PPENSDSGTGKKEKEKKNRKGKDK [EIF5] and report it.
5.48

Check the records and state protein stability index for LDTERPVQKRARSGPQPRLPPCLL [TRIB3]
4.1

Input HFPHLLSPQIQRSAHRALYRRHVL [TMEM175] , output reported protein stability index.
2.85

Give protein stability index for the following sequence: PLLKMDLNSEQAEQLERINDALSC [FAM98B]
4.36

###

protein stability index: recorded values
# Procedure Summary: protein stability index of a GFP-peptide fusion (GPS, HEK-293T) (PSI 1-6); higher = more stable
# Assay Setup: treatment: DMSO; c terminus: a fixed tail appended
Give the figure by itself; no unit, no explanation.

The examples below pair each entry with its known result.
- Record Sequence: "LLDSMCPASTPSVLSSEQEFQMFP [ETS2]"
  protein stability index: 3.94
- Record Sequence: "YQELLRVCCCELGVNPDQVEKIRK [ANKRD40]"
  protein stability index: 2.41
- Record Sequence: "VEKIRKLPNTLLRKDKDVARLQDF [ANKRD40]"
  protein stability index: 2.93
- Record Sequence: "KLVRSPSGLRMVPEHRAFGSPFGL [ZFYVE21]"
  protein stability index: 2.32
- Record Sequence: "TLDKCGICQGDGSSCTHVTGNYRK [ADAMTSL2]"
  protein stability index: 4.91
- Record Sequence: "TLLHFSAARGKERCVRVFLEHGAD [ASB7]"
  protein stability index: 2

Then this sequence:
Give a short answer stating reported protein stability index for QKLQDVLHEALQDYEAGQHMEDPR [ESRRG] .
4.72

###

# Procedure Summary: protein stability index of a GFP-peptide fusion (GPS, HEK-293T) (PSI 1-6); higher = more stable
# Assay Setup: treatment: MLN4924 1 uM, 8 h; c terminus: a fixed tail appended
The label depends only on protein stability index: True if it is at least 4, False if it is smaller.

- Record Sequence: "LIFGLITCLTGVLGVGLGVEISRR [SPNS1]"
  Qualitative Label: "False"
- Record Sequence: "MAEEQGRERDSVPKPSVLFLHPDL [ALG2]"
  Qualitative Label: "True"
- Record Sequence: "EDSILGDPKKLLTQHFVQENYLEY [MAGEA3]"
  Qualitative Label: "False"

Please check the record PAADPPRYTFAPSVSLNKTARPFG [PDLIM7] and state if its protein stability index is at or above 4.
False

Evaluate CWPMMDFLRCVTAALIYFAISITA [CMTM3] : protein stability index at minimum 4?
False

Does the sequence TTLEIHNTEERQKRQVTHFQFLSW [PTPN9] have recorded protein stability index that is 4 or more?
False

Answer whether protein stability index of EPFPSSDDSPRSALAAATAAAAAA [SPAG8] is greater than or equal to 4.
True

###

# Procedure Summary: protein stability index of a GFP-peptide fusion (GPS, HEK-293T) (PSI 1-6); higher = more stable
# Assay Setup: treatment: MLN4924 1 uM, 8 h; c terminus: a fixed tail appended
Rule: protein stability index of 3 or more gives y; anything lower gives n.

Before answering, review these 6 worked examples.
- Record Sequence: "PGPVCQPPVSQSRSLFSSVPSKPP [ANKRD40]"
  Qualitative Label: "y"
- Record Sequence: "TKITSAFKYINTVISCTIFIVGMV [EDNRA]"
  Qualitative Label: "n"
- Record Sequence: "HVKEQLPCAGLNCQALDANLDANL [TLE6]"
  Qualitative Label: "y"
- Record Sequence: "IPPAAMLDQAPKARKYFERLPGGG [DYRK1B]"
  Qualitative Label: "y"
- Record Sequence: "NEIIKKLQGDLKTLMGKLKLKNTV [SASS6]"
  Qualitative Label: "n"
- Record Sequence: "RHYAYLRDSLSHLVPALRLPGRKL [INTS4]"
  Qualitative Label: "n"

Does the reported protein stability index for CKKLSLELGGKNPAIIFEDANLDE [ALDH8A1] fall at or above the 3 mark?
y

Could you please find out whether ARRESGGRPIKPPKKDLEDGEVPQ [BRD3] has protein stability index that meets 3 or exceeds it?
y

Hello, I need to know if GSLHYTTLRTLTGQDTMLKAMFSG [KCTD13] has measured protein stability index not below 3. Thanks!
n

Is reported protein stability index greater than or equal to 3 here: NAMTCEGCKGFFRRSMKRKALFTC [VDR]
n

Tell me whether protein stability index is at least 3 here: KTVLMIAIQLLSRMEYVHSKNLIY [CSNK1G1]
y

Record ERLQAAGTDSAGPKTVPSHVFSEL [ELOA2] ; criterion: protein stability index no lower than 3. Met?
y

Determine whether measured protein stability index meets or exceeds 3 for FVIGHLKGAPASWWNHMHFQHHAK [FADS1]
n

Exam item: decide whether the reported protein stability index for GEESSKAKEVTIAKADTTSTVTPV [EHMT1] is at least 3.
y

Is protein stability index for QETPYLVKLPLPAERVTLADFKGV [DVL3] at or above 3?
y

Would you say GWLPSHEGHLDDGGYTPDLKMSYS [RBMY1A1] shows protein stability index at minimum 3?
y

Check this sequence for protein stability index at or above 3: SDHEMREEEKLKAEEIRIKGKYNI [KCNK9]
y

Reported protein stability index reaches at least 3 for LVFEHVDQDLRTYLDKAPPPGLPA [CDK4] ?
n

Does GLAGLLPASYTAPIMSGQGLAGFF [SLC29A1] have a reported protein stability index of at least 3?
n

Quick check, protein stability index >= 3? PDSMFLAMLAVVSCASIGSGEPPT [CDK11A]
y

Please indicate if the recorded protein stability index for GRLELKPLLLRLPRICQRNLMSLL [FANCE] meets or exceeds 3.
n

Tell me whether protein stability index is at least 3 here: LVELLQPFKQVAEMLSASRYPTIS [ZBED1]
n
